# EXPERIMENTAL_TARGET: T1, wild-type human CLDN-5 protein (human, UniProt O00501 1-218)
# T1 construct: Four-transmembrane tight junction protein expressed by retrovirus on HT-1080 (or MDCKII) cells; also called hCLDN-5; human Claudin-5 protein
# T1 sequence: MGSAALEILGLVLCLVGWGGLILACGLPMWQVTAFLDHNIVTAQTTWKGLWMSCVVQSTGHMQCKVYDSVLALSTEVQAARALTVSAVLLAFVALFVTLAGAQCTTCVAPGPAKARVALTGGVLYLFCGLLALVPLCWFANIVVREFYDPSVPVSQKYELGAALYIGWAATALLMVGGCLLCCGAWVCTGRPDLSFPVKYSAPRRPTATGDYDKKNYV
# METHOD_SUMMARY: FACS saturation binding on HT-1080/hCLDN-5, one-site fit; Lot 1
Below, each of the binders is paired with its reported pKd value.
pKd field: float, defined as -log10 of concentration (mol/L).

For orientation, consider the following solved cases.
INSERT INTO results (binder, experimental_endpoint, observed_value) VALUES
  ('rat anti-CLDN-5 antibody R3 (antibody, rat IgG2a, V domains shown, Hybridoma monoclonal; also called antibody G) VH: EVQLVESGGGLVQPGRSLKLSCAASGFTFSDYYMAWVRQAPKKGLEWVASISYEGRNTYYGDSVKGRFTISRDNAKSTLYLQMKSLRSEDTATYYCTRHPRRYFDYWGQGVMVTVSS VL: DIVMTQSPSSLAVSAGETVTMNCRSSQSLFSSGDQKKFLAWYQQKPGQSPKLLISLASTRESGVPDRFIGSGSGTDFTLTINNMQAEDLAIYYCQQHYDIPYTFGAGTKLEL', 'pKd', 8.14),
  ('rat anti-CLDN-5 antibody R14 (antibody, rat IgG2a, V domains shown, Hybridoma monoclonal; also called antibody K) VH: QVTLKESGPGILQPSHTLSLTCSFSGFSLSTYGMGVSWIRQPSGKGLEWLASIWWNGRTYTNPSLMSRLTVSKDTSTNQAFLRVTSVETADTATYYCAHTPYDYSNLGWFTYWGQGTLVTVSS VL: DILMTQTPSSQAVSAGEKVTVSCKSSQSLLYSGDQKSYLAWYQQKPGQSPKLLIYLASTRKSGVPDRFIGSGSGTDFTLTISSVQAEDLADYYCQQHYTYPLTFGSGTKLEI', 'pKd', 8.33),
  ('rat anti-CLDN-5 antibody R2 (antibody, rat IgG2a, V domains shown, Hybridoma monoclonal; also called antibody F) VH: QVQLKESGPGLVQPSQTLSLTCTVSGLSLIRNSVSWIRQPPGKGLEWMGVIWSNGGTEYNSTVKSRLSISRDTSKNQVFLKMNSLQTEDSAMFFCARTPDGYYPYFDYWGQGVMVTVSS VL: DIVLTQSPATLSVTPGESVSLSCRASQGISTSIHWYQQKSNESPRLLIRYASQSISRIPSRFSGSGSGTDFTLTINGVESEDLSVYYCQQSYNLPLTFGSGTKLEI', 'pKd', 7.70),
  ('mouse anti-CLDN-5 antibody M48 (antibody, mouse IgG3, V domains shown, Hybridoma monoclonal; also called antibody E) VH: QAYLQQSGAELVRPGASVKMSCKASGYTFTSYNMHWVKKTRRQGLEWIGAISPGNGNTSYNQKFKGKATLTVDKSSSTAYMQLSSLTSEDSAVYFCARDDGYYGALDYWGQGTSVTVSS VL: DIVLTQSPATLSVTPGESVSLSCRASQGISTSIHWYQQKSNESPRLLIRYASQSISRIPSRFSGSGSGTDFTLTINGVESEDLSVYYCQQSYNLPLTFGSGTKLEI', 'pKd', 7.54),
  ('mouse anti-CLDN-5 antibody M23 (antibody, mouse IgG2b, V domains shown, Hybridoma monoclonal; also called antibody C) VH: EVQLQQSGPVLVKPGPSVMISCKASGFTFTDYYMHWVKQSHGKSLEWIGLVYPYNGGTDYNQKFKGKATLTVDTSSSTAYMELNSLTSEDSAVYYCARCLYDGLYFYAMDYWGQGTSVTVSS VL: DIVMSQSPSSLAVSAGEKVTMTCKSSQSLLNSRARKNYLAWYQQKAGQSPKLLMYWASTRESGVPDRFTASGSGTDFTLTISSVQAEDLAVFYCKQSYNLPWTFGGGTKLEIKR', 'pKd', 8.42),
  ('rat anti-CLDN-5 antibody R9 (antibody, rat IgG2b, V domains shown, Hybridoma monoclonal; also called antibody I) VH: QVTLKESGPGILQPSHTLSLTCSFSGFSLNTYGVGVNWIRQPSGKGLEWLASIWWHGKTYINPSLKNRLTVSKDPSNNQAFLEVTNVDPADTATYYCAHARAQLLDYWGQGVMVTVSS VL: DIVMTQTPSSQAVSAGEKVTMSCKSSQSLLYSGDQKNYLAWYQQKPGQSPKLLIYLTSTRESGVPDRFIGSGSGTDFTLTISSVQAEDLADYYCQQHYSYPLTFGSGTKLEI', 'pKd', 8.42);

// query pKd value for entry mouse anti-CLDN-5 antibody M11 (antibody, mouse IgG2b, V domains shown, Hybridoma monoclonal; also called antibody B) VH: QVQLKQSGPGLVQPSQSLSITCTVSGFSLIRYGVHWVRQSPGKGLEWLGVKWSGGSTDYNGAFKSRLSISKDNSKSQVFFKMNSLQADDTAIYYCARGLDGYYVPDVWGTGTSVTVS VL: DIVMTQSHKFMSTSVGDRVSITCKASQDVSTNVAWYQQKPGQSPTLLIYWASTRHTGVPDRFTGSGSGTDYTLTISSVQAEDLALYYCQQHYSTPLTFGAGTKLELRR
8.06
